# assaySummary: In vitro stability, half-life in human plasma
# Type: in vitro ADME
# conditionSet: human plasma (K3 EDTA); 90% human plasma, 37° C., RP-HPLC; read-out: t½ (hours) in human plasma (converted)
outcomeMeasure: half-life at 0.6 mg/mL (h)
Answers are plain numbers, in h.

According to the records, this substance Ac-RDSSNSCDLPEF-NH2 [Ac-SEQ ID NO: 10-NH2, reference compound] displays half-life at 0.6 mg/mL of 0.32
